Test system: RARa:RXR (NR concentration 270 nM, RXRa partner concentration 90 nM)
assayExplanation: PBM binding z-score (relative to random genomic background probes); higher = stronger binding; sequences stand for … in GC…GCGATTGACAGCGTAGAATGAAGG
I'd appreciate it if you could supply PBM binding z-score values for the items below.
Please reply with the number alone, leaving off any unit.

Summary for this sequence, TCTAATAGTTGATTAGGGCAACCGAAACAGCGGA : PBM binding z-score is 0.766

Summary for this sequence, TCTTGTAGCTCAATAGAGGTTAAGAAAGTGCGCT : PBM binding z-score is 1.28

Summary for this sequence, GCGTCTGGGGCAAAGCAGGTTACCATAAGGTTGG : PBM binding z-score is 0.843

Summary for this sequence, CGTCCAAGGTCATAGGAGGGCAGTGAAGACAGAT : PBM binding z-score is 4.4

Summary for this sequence, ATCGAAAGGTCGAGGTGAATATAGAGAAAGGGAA : PBM binding z-score is 3.39

Summary for this sequence, AGAATGAGGTTATACGTAGATCGGGGAAGAAAGT : PBM binding z-score is 1.92

Summary for this sequence, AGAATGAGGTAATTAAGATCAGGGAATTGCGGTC : PBM binding z-score is 0.224

----------
I'd appreciate it if you could supply PBM binding z-score values for the items below.
Test system: PPARg:RXRa IVT, anti-PPARg (NR concentration 270 nM, RXRa partner concentration 90 nM)
assayExplanation: PBM binding z-score (relative to random genomic background probes); higher = stronger binding; sequences stand for … in GC…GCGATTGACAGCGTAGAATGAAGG

Summary for this sequence, CATCCAAGGTCAATGCTAGGTCAGTGAAAGCATT : PBM binding z-score is 4.16

Summary for this sequence, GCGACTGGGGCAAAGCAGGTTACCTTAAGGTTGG : PBM binding z-score is 3.47

Summary for this sequence, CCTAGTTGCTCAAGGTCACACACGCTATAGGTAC : PBM binding z-score is 2.33

Summary for this sequence, TCTCGGAGGACACGAAGGCCAGAGCTTTCCAGAG : PBM binding z-score is 0.0169

Summary for this sequence, GGAACGAGGGCATTCGACTTGATAGCATGGCGAT : PBM binding z-score is 2.21

Summary for this sequence, ATCTATAGGTAAAGTTCAGTGAAAGATCGATAGA : PBM binding z-score is 1.74

Summary for this sequence, TCTAGCATGCCAGAGGGTCACTCAAGAGGTACGG : PBM binding z-score is 0.403

Summary for this sequence, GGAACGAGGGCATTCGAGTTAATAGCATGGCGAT : PBM binding z-score is 2.26

Summary for this sequence, TAGCCTAGGTCAGATCGGGCCAGTATCCGCTATA : PBM binding z-score is 1.41

Summary for this sequence, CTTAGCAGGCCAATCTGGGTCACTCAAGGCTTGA : PBM binding z-score is 5.41

Summary for this sequence, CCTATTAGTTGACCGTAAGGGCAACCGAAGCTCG : PBM binding z-score is 0.672

Summary for this sequence, GCTTACGGGTCAAAGGTTATAGGATGAATAGAAT : PBM binding z-score is 5.81

Summary for this sequence, TTACTAAGGTGAAGGTCGTTGATCCCTCTGTAGA : PBM binding z-score is 4.68

Summary for this sequence, ACTTTTAGTTGAGACGAGGGCAACCGATAGGTTG : PBM binding z-score is 0.663

Summary for this sequence, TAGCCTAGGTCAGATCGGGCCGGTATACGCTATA : PBM binding z-score is 1.34

Summary for this sequence, ACTTTCGGGTCAACGAGGTTATAGCACGCGTATA : PBM binding z-score is 4.16

Summary for this sequence, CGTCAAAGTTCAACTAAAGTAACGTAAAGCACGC : PBM binding z-score is 2

Summary for this sequence, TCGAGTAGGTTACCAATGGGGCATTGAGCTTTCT : PBM binding z-score is 2.69

Summary for this sequence, TCTTGTAGATCAACAGGAGGTTAAGACAGATCGA : PBM binding z-score is 0.984

Summary for this sequence, TAGCCTAGGTCATGCAGGGGCCAGTATAGAAAGC : PBM binding z-score is 2.59

Summary for this sequence, CGTCCAAGGTCATCGGAGGTCAGTGAAGACAGAT : PBM binding z-score is 4.14

Summary for this sequence, TCATATAGGTAAGGGTGAAAGTCGAACGATATGA : PBM binding z-score is 2.84

Summary for this sequence, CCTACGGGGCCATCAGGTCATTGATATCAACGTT : PBM binding z-score is 2.4

Summary for this sequence, TTACCAAGGTGAAAGGTCGTTGTTGCACGCCTTG : PBM binding z-score is 4.85
